B1: ETS1 (parent)
chain: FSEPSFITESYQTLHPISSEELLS

# Variants of: B1
# assay_info: protein stability index of a GFP-peptide fusion (GPS, HEK-293T) (PSI 1-6); higher = more stable;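 note: lentivirally expressed fusions sorted by FACS into six bins by GFP to DsRed ratio, PSI derived from sequencing read proportions per bin multiplied by bin number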
# stated_conditions: c terminus: a fixed tail appended
Note to self: values exactly at 2 are Fulfilled. So protein stability index at or above 2 is Fulfilled, below is Not fulfilled.

polymer_sequence: FSEPSMITESYQTLHPISSEELLS [F6M]
answer_label: Fulfilled
--
polymer_sequence: FSEPSFITESYQTLHVISSEELLS [P16V]
answer_label: Fulfilled
--
polymer_sequence: FSEPSFITESYQTLHPISSEELDS [L23D]
answer_label: Fulfilled
--
polymer_sequence: FMEPSFITESYQTLHPISSEELLS [S2M]
answer_label: Not fulfilled
--
polymer_sequence: FSCPSFITESYQTLHPISSEELLS [E3C]
answer_label: Not fulfilled
--
polymer_sequence: FSEPSFITESYQTLHPTSSEELLS [I17T]
answer_label: Fulfilled
--
polymer_sequence: FSEPSFITESHQTLHPISSEELLS [Y11H]
answer_label: Fulfilled
--
polymer_sequence: FSEPSFITESYQTLHPISSCELLS [E20C]
answer_label: Not fulfilled
--
polymer_sequence: FSEPSFFTESYQTLHPISSEELLS [I7F]
answer_label: Not fulfilled
--
polymer_sequence: FSEPSFWTESYQTLHPISSEELLS [I7W]
answer_label: Fulfilled
--
polymer_sequence: FSEPSFITESYQTLHPISSEHLLS [E21H]
answer_label: Fulfilled
--
polymer_sequence: FSEPSFITESYQTLHPSSSEELLS [I17S]
answer_label: Fulfilled
--
polymer_sequence: FSEPSFITESYWTLHPISSEELLS [Q12W]
answer_label: Fulfilled
--
polymer_sequence: FSEPSSITESYQTLHPISSEELLS [F6S]
answer_label: Fulfilled
--
polymer_sequence: FSEPSFITESYQTLHPISSWELLS [E20W]
answer_label: Not fulfilled
--
polymer_sequence: FSEPSFITCSYQTLHPISSEELLS [E9C]
answer_label: Fulfilled
--
polymer_sequence: FSEPSFITESYQELHPISSEELLS [T13E]
answer_label: Fulfilled
--
polymer_sequence: FSEPSFITESYQTLHPISNEELLS [S19N]
answer_label: Fulfilled
--
polymer_sequence: FSEPSFITESYQDLHPISSEELLS [T13D]
answer_label: Fulfilled
--
polymer_sequence: MSEPSFITESYQTLHPISSEELLS [F1M]
answer_label: Fulfilled
--
polymer_sequence: FSEPSFITESYQTLHPCSSEELLS [I17C]
answer_label: Not fulfilled
--
polymer_sequence: FSEPSFITESYQTLHSISSEELLS [P16S]
answer_label: Fulfilled
--
polymer_sequence: FSEPSFITESYQTLHPISKEELLS [S19K]
answer_label: Not fulfilled
--
polymer_sequence: FSRPSFITESYQTLHPISSEELLS [E3R]
answer_label: Fulfilled
--
polymer_sequence: FSEPSFITESYDTLHPISSEELLS [Q12D]
answer_label: Fulfilled
--
polymer_sequence: FSEPSFITESYQTLHPVSSEELLS [I17V]
answer_label: Fulfilled
--
polymer_sequence: FSEPSFITESYQTLHYISSEELLS [P16Y]
answer_label: Not fulfilled
--
polymer_sequence: FSEPSFITESYQTIHPISSEELLS [L14I]
answer_label: Not fulfilled
--
polymer_sequence: FSEPSFITESYQTLHPISSEEHLS [L22H]
answer_label: Fulfilled
--
polymer_sequence: FSEPSFITESYQTLTPISSEELLS [H15T]
answer_label: Fulfilled
--
polymer_sequence: FSEPSFITESYQTLHPIRSEELLS [S18R]
answer_label: Fulfilled
--
polymer_sequence: FSEPSFITESYQTLHPISSEEILS [L22I]
answer_label: Fulfilled
--
polymer_sequence: FSEPSFITESQQTLHPISSEELLS [Y11Q]
answer_label: Fulfilled
--
polymer_sequence: FEEPSFITESYQTLHPISSEELLS [S2E]
answer_label: Fulfilled
--
polymer_sequence: FSEPSFITESYQALHPISSEELLS [T13A]
answer_label: Fulfilled
--
polymer_sequence: FSEPSFITESYQTLHPFSSEELLS [I17F]
answer_label: Not fulfilled
--
polymer_sequence: FSEPSFITESYCTLHPISSEELLS [Q12C]
answer_label: Fulfilled
--
polymer_sequence: FSEPSFITEQYQTLHPISSEELLS [S10Q]
answer_label: Fulfilled
--
polymer_sequence: FSEPSFITESYQTLHPISCEELLS [S19C]
answer_label: Not fulfilled
--
polymer_sequence: FSEPSFITESYQKLHPISSEELLS [T13K]
answer_label: Not fulfilled
--
polymer_sequence: FSEPSFITESYQTLHPISVEELLS [S19V]
answer_label: Not fulfilled
--
polymer_sequence: FSEPSFITMSYQTLHPISSEELLS [E9M]
answer_label: Fulfilled
--
polymer_sequence: FSEPSFITESYQTLHPISQEELLS [S19Q]
answer_label: Fulfilled
